# Test system: MDA-MB-231;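 further: breast cancer cell viability read out with the CCK-8 kit after co-treatment of each compound with the ferroptosis inducer RSL3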
# Assay remarks: relative cell viability, compound + RSL3, vs DMSO (fraction of DMSO control); higher = less growth inhibition
# Test parameters: 72 h
Note to self: use Yes only for relative cell viability readings below 0.6; a reading exactly at 0.6 still gets No.

The following compounds have reported results that may help.
COc1ccc2[nH]cc(CCNC(C)=O)c2c1 [Melatonine] + COC(=O)c1ccc([C@H]2c3[nH]c4ccccc4c3C[C@H](C(=O)OC)N2C(=O)CCl)cc1 [RSL3] = Yes
COc1ccc(-c2coc3cc(O)cc(O)c3c2=O)cc1 [Biochanin A] + COC(=O)c1ccc([C@H]2c3[nH]c4ccccc4c3C[C@H](C(=O)OC)N2C(=O)CCl)cc1 [RSL3] = Yes
NC(=O)c1cccc(-c2cccc(OC(=O)NC3CCCCC3)c2)c1 + COC(=O)c1ccc([C@H]2c3[nH]c4ccccc4c3C[C@H](C(=O)OC)N2C(=O)CCl)cc1 [RSL3] = No

query: Given Cc1cc(N2C[C@@H](C)N[C@@H](C)C2)ncc1-c1ccc(-c2nc3c(ccn3C)c(=O)[nH]2)cc1 + COC(=O)c1ccc([C@H]2c3[nH]c4ccccc4c3C[C@H](C(=O)OC)N2C(=O)CCl)cc1 [RSL3] , is recorded relative cell viability strictly lower than 0.6?
result: No

query: Given COCCNC(=O)Nc1ccc2nc(-c3cccs3)c(-c3cccs3)nc2c1 [Ac-CoA Synthase Inhibitor1] + COC(=O)c1ccc([C@H]2c3[nH]c4ccccc4c3C[C@H](C(=O)OC)N2C(=O)CCl)cc1 [RSL3] , is recorded relative cell viability strictly lower than 0.6?
result: Yes
